Test system: MKN28 (Gastric Carcinoma);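 also: after 72 h of two-drug dosing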
assay-procedure: Bliss excess, mean over the matrix (fraction); higher = more synergy
measurement-label: Bliss excess
Lab note: jot down the number only; don't add units.

So what's the measured Bliss excess for this one? CC1(C)CCC(CN2CCN(c3ccc(C(=O)NS(=O)(=O)c4ccc(NCC5CCOCC5)c([N+](=O)[O-])c4)c(Oc4cnc5[nH]ccc5c4)c3)CC2)=C(c2ccc(Cl)cc2)C1 [Venetoclax] + CCN(CCO)CCCOc1ccc2c(Nc3cc(CC(=O)Nc4cccc(F)c4)[nH]n3)ncnc2c1 [AZD2811] (first compound max 1 µM, 7x7, partner max 1 µM)
-0.0257

Further, for C[C@@H](Oc1cc(-c2cnn(C3CCNCC3)c2)cnc1N)c1c(Cl)ccc(F)c1Cl [Crizotinib] + CC1=C(C(=CC=C1)Cl)NC(=O)C2=CN=C(S2)NC3=CC(=NC(=N3)C)N4CCN(CC4)CCO [Dasatinib] (first compound max 10 µM, 7x7, partner max 2 µM) ?
-0.0096

Next molecule: CS(=O)(=O)CCNCc1ccc(-c2ccc3ncnc(Nc4ccc(OCc5cccc(F)c5)c(Cl)c4)c3c2)o1 [Lapatinib] + NC1(c2ccc(-c3nc4ccn5c(=O)[nH]nc5c4cc3-c3ccccc3)cc2)CCC1 [MK-2206] (first compound max 10 µM, 7x7, partner max 10 µM)
-0.0445
